measured_target: human 5-HT4(a) (Homo sapiens, UniProt Q13639)
Sequence (Q13639 1-387 isoform Q13639-2): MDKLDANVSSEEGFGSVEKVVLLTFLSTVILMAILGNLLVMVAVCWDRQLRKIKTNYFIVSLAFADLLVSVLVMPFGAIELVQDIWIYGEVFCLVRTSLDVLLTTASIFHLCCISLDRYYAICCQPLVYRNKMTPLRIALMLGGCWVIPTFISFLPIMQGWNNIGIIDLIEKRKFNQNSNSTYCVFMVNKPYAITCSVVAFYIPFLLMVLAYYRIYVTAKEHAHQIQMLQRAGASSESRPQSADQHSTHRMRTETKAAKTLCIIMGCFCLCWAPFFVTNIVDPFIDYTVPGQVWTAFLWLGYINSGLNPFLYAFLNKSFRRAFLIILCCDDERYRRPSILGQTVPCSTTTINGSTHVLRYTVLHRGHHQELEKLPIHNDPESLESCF
assay_summary: Evaluation of agonistic activity in CHO-K1 cells expressing human 5-HT4(a) (GeneBlAzer HTR4-CRE-bla CHO-K1, beta-lactamase reporter)
details: CHO-K1 cells stably expressing human 5-HT4(a)
Structures can show the parent of a compound that is named as a salt.
Binary call on EC50 with cut-off 20 pM: strictly below means yes, and equality or higher means no.

Answered examples (6):
1. CCCc1cc(N2CC[C@H](N)C2)nc(Nc2ccc(C)c(C#N)c2)n1 [Example 354, dihydrochloride] : yes
2. CCCc1cc(N2CCC[C@H]2CO)nc(Nc2ccc(N)c(C(F)(F)F)c2)n1 : yes
3. CCCc1cc(N2CCC[C@H]2C)nc(Nc2ccc(OC)c(N)c2)n1 : no
4. CCCc1cc(N2CCC[C@H]2COC)nc(Nc2ccc(OC)c(N)c2)n1 : no
5. CCCc1cc(N2CC[C@H](NCCCSC)C2)nc(Nc2cccc(C#N)c2)n1 : yes
6. CCCCc1cc(N2CC[C@H](NC)C2)nc(Nc2ccc(F)c(C#N)c2)n1 : yes

For `CCCCc1cc(N2CC[C@H](NC(C)=O)C2)nc(Nc2ccc(C)c([N+](=O)[O-])c2)n1` , is the recorded EC50 below the cut-off of 20 pM?
yes

Consider the compound `CCCc1cc(N2CC[C@H](NCC3CC3)C2)nc(Nc2ccc(C)c(Cl)c2)n1` . Is its EC50 strictly less than 20 pM?
yes
